What composite z-score was measured for each of the following?
# Target Or System: Dickkopf-related protein 1 (Homo sapiens)
# Procedure Details: DKK1 binders on small-molecule microarrays, primary screen, biochemical, small-molecule microarray, 635 nm fluorescence scan (AID 1106);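 further: score merges emission near 667 nm with signal to noise over three replicate slides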
# Experimental Setup: DKK1 binding, higher = more signal
Give your answer as a number; write no unit.

Query: // composite z-score lookup, key: [N-]=[N+]=Nc1ccccc1C[C@@]1(C(=O)O)N=C(c2ccc(OCCCO)cc2)O[C@@H]1c1ccccc1N=[N+]=[N-]
Reply: -0.435

Query: // composite z-score lookup, key: O=C(NCC(O)CO)[C@@]1(CCS(=O)(=O)c2ccccc2)COC(c2ccc(OCCCO)cc2)=N1 (some centres not stated)
Reply: -0.522

Query: // composite z-score lookup, key: CCCCC=C[C@@H](NC(=O)c1ccccc1)c1ccccc1
Reply: 0.0017

Query: // composite z-score lookup, key: CC(C)(C)OC(=O)CC[C@]12N=C(c3ccc(OCCCO)cc3)O[C@H]1c1ccccc1N(Cc1ccccc1)C2=O
Reply: 0.168

Query: // composite z-score lookup, key: CC(=O)NCCCC[C@@H]1NC(=O)[C@@H]2C[C@H](C(=O)NCCCCCCN)[C@H](c3cccc(OCCO)c3)N2C1=O
Reply: -0.733

Query: // composite z-score lookup, key: CN(C)C(=O)[C@]1(CCS(=O)(=O)c2ccccc2)N=C(c2ccc(OCCCO)cc2)O[C@@H]1c1ccccc1
Reply: -0.323

Query: // composite z-score lookup, key: CCCCCN1CC=CC23O[C@@H]4/C=C\CCC(C)OC(=O)C4[C@H]2C(=O)N(CCCCCCO)[C@@H]3C1=O (some centres not stated)
Reply: -0.397

Query: // composite z-score lookup, key: COCCOC(=O)N1C(=O)[C@@]2(c3cc(C#CCCO)ccc31)[C@H](c1ccccc1OCCO)N1[C@H](c3ccccc3)[C@H](c3ccccc3)OC(=O)[C@H]1[C@@H]2C(=O)N1CCCCCCC1
Reply: 1.31

Query: // composite z-score lookup, key: [N-]=[N+]=NCc1ccccc1[C@@H]1OC(c2ccc(OCCCO)cc2)=N[C@]1(Cc1ccccc1)C(=O)NCCN1CCOCC1
Reply: -0.383

Query: // composite z-score lookup, key: COCCOC(=O)N1C(=O)[C@@]2(c3cc(C#CCNC(N)=O)ccc31)[C@H](c1ccc(O)cc1)N1[C@H](c3ccccc3)[C@H](c3ccccc3)OC(=O)[C@H]1[C@@H]2C(=O)N1CCN(c2ncccn2)CC1
Reply: 0.0805

Query: // composite z-score lookup, key: C=CCNC(=O)[C@@H]1[C@H]2C(=O)O[C@H](c3ccccc3)[C@H](c3ccccc3)N2[C@H](c2ccc(O)cc2)[C@@]12C(=O)N(C(=O)OCCOC)c1ccc(C#CCCO)cc12
Reply: 0.921

Query: // composite z-score lookup, key: O=C1N(CCS(=O)(=O)c2ccccc2)Cc2ccccc2[C@@H]2OC(c3ccc(OCCCO)cc3)=N[C@]12CCS(=O)(=O)c1ccccc1
Reply: 1.46

----------
# Target Or System: Torsin-1A-interacting protein 1 (Homo sapiens) (UniProt Q5JTV8)
# Sequence (Q5JTV8 whole entry, looked up): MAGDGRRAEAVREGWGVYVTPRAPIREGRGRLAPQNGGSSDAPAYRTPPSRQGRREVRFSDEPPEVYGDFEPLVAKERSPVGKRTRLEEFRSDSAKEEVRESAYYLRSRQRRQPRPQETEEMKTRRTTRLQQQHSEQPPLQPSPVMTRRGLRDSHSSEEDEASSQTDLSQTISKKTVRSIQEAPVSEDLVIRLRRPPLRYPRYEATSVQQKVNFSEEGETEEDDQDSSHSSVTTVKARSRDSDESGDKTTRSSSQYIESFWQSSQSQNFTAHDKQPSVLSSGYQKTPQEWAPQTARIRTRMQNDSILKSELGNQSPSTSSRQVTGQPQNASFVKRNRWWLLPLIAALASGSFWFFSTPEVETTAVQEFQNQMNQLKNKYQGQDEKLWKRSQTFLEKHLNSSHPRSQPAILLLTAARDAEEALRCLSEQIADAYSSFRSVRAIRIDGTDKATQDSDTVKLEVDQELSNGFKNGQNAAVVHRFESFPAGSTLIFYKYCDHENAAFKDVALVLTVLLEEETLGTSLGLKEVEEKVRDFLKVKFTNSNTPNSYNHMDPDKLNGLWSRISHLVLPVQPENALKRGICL
# Procedure Details: LAP1 binders from COS7 cell lysate, primary screen, small-molecule microarray, 635/667 nm fluorescence (AID 1116)
# Experimental Setup: COS7-hLAP1 lysate binding, 635 nm fluorescence, higher = more signal
Measure Name: composite z-score
Give your answer as a number; write no unit.

Query: // composite z-score lookup, key: COCCOC(=O)N1C(=O)[C@@]2(c3ccccc31)[C@H](c1ccccc1OCCO)N1[C@H](c3ccccc3)[C@H](c3ccccc3)OC(=O)[C@H]1[C@@H]2C(N)=O
Reply: 1.29

Query: // composite z-score lookup, key: CN(C)CCCC[C@@H]1NC(=O)[C@@H]2C[C@H](C(=O)O)[C@H](c3cccc(OCCO)c3)N2C1=O
Reply: -0.657

Query: // composite z-score lookup, key: O=C1C2C=CC(C(O)c3cc(C(F)(F)F)cc(C(F)(F)F)c3)N(Nc3ccccc3F)C2C(=O)N1c1ccccc1 (centres undefined)
Reply: 0.985

Query: // composite z-score lookup, key: COc1ccc(C#Cc2ccc3c(c2)[C@]2(C(=O)N3)[C@H](C(=O)Nc3nc4ccccc4s3)[C@H]3C(=O)O[C@H](c4ccccc4)[C@H](c4ccccc4)N3[C@@H]2c2ccccc2OCCO)cc1
Reply: 0.471
